Assignment: determine reported CC50 for the given compounds.
Assay: Cytotoxicity against human MT4 cells by MTT assay
Assay type: cell-based

CC50 lookup needed for Cc1ccnc2c1NC(=O)c1cccnc1N2C1CC1 , thanks. > 7.5 µM

Which measured CC50 value corresponds to COc1ccc([C@H]2C[C@@H]2CSc2nc([C@@H](C)c3c(F)cccc3F)c(C)c(=O)[nH]2)cc1 ? > 56.2 µM

Given the entry O=C1Nc2ccc(Cl)cc2[C@@](C#CC2CC2)(C(F)(F)F)O1 , report its measured CC50. > 0.32 µM

Param item = COc1ccc([C@H]2C[C@@H]2CSc2nc([C@H](C)c3c(F)cccc3F)c(C)c(=O)[nH]2)cc1 ; retrieve measured CC50. > 56.2 µM
